Target: cynomolgus monkey DPP9 (Macaca fascicularis, UniProt A0A2K5TQ54)
Sequence (A0A2K5TQ54 156-951): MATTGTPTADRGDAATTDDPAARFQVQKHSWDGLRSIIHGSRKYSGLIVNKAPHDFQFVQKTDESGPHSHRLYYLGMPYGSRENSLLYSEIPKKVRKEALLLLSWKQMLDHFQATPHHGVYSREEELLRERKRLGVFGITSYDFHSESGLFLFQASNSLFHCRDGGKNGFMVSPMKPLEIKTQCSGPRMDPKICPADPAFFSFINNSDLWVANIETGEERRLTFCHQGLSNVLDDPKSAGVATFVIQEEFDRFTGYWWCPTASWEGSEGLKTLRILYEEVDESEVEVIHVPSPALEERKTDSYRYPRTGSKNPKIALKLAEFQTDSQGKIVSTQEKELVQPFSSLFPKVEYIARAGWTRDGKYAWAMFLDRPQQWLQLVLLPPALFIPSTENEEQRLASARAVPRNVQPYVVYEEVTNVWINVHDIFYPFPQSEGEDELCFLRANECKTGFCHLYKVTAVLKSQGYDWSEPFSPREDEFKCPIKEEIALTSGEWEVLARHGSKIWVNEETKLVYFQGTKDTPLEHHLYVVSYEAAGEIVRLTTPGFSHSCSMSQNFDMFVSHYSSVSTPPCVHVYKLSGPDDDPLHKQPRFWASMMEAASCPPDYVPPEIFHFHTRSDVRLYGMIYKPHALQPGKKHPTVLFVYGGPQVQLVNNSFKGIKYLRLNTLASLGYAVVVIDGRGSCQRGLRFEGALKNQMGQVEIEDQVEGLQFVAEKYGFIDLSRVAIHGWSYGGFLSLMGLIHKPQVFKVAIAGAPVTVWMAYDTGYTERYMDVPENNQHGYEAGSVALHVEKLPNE
Assay: Steady-state inhibition of isolated cloned DPP9 at 37°C (gly-pro-pNA)
Details: mean ± SD (n)
Description: All solutions were preheated to 37°C. DPP8 and DPP9 were tested under identical conditions.
measure: Ki (nM)
Give bare numbers, in nM.

Need Ki for each of these molecules.
1. N#C[C@@H]1CCCN1C(=O)CNC12CC3CC(CC(O)(C3)C1)C2 [Vildagliptin, reference compound]
2. N[C@@H](CC(=O)N1CCn2c(nnc2C(F)(F)F)C1)Cc1cc(F)c(F)cc1F [Sitagliptin, reference compound]
3. N#C[C@@H]1C[C@@H]2C[C@@H]2N1C(=O)[C@@H](N)C12CC3CC(CC(O)(C3)C1)C2 [Saxagliptin]
4. N#C[C@@H]1C[C@@H]2C[C@@H]2N1C(=O)[C@@H](N)C12CC3CC(O)(CC(O)(C3)C1)C2 [5-hydroxysaxagliptin]

1. 125
2. 65800
3. 61
4. 323
